Target: anti-H3K4me3 antibody ab8580
Test: peptide microarray binding signal (635 nm), min-max normalized on array (fraction of array maximum); higher = stronger binding
Conditions: peptide region: Unmod H2A variant; binder concentration: 1:10,000 dilution
Use Condition met when the recorded peptide microarray binding signal is no lower than 0.002; use Condition not met when it is lower.

Use the examples below as a reference point.
INSERT INTO results (binder, group_label) VALUES
  ('QGGKARAKAKSRS [Unmod H2A variant Q G G K A R A K A K S R S]', 'Condition not met'),
  ('RNDEELNKLLGGV [Unmod H2A variant R N D E E L N K L L G G V]', 'Condition not met'),
  ('GVLPNIQAVLLPK [Unmod H2A variant G V L P N I Q A V L L P K]', 'Condition met'),
  ('LNKLLGGVTIAQG [Unmod H2A variant L N K L L G G V T I A Q G]', 'Condition not met'),
  ('ILELAGNAARDNK [Unmod H2A variant I L E L A G N A A R D N K]', 'Condition met');

Tell me whether peptide microarray binding signal is at least 0.002 here: SGRGKQGGKARAK [Unmod H2A variant S G R G K Q G G K A R A K]
Condition met

Tell me whether peptide microarray binding signal is at least 0.002 here: DNKKTRIIPRHLQ [Unmod H2A variant D N K K T R I I P R H L Q]
Condition not met

Tell me whether peptide microarray binding signal is at least 0.002 here: KGNYAERVGAGAP [Unmod H2A variant K G N Y A E R V G A G A P]
Condition not met

Tell me whether peptide microarray binding signal is at least 0.002 here: RAKSKSRSSRAGL [Unmod H2A variant R A K S K S R S S R A G L]
Condition not met

Tell me whether peptide microarray binding signal is at least 0.002 here: KGNYAERIGAGAP [Unmod H2A variant K G N Y A E R I G A G A P]
Condition met
